- Target Of Assay: Nuclear receptor ROR-gamma (Mus musculus) (UniProt P51450)
- Sequence (P51450 whole entry, looked up): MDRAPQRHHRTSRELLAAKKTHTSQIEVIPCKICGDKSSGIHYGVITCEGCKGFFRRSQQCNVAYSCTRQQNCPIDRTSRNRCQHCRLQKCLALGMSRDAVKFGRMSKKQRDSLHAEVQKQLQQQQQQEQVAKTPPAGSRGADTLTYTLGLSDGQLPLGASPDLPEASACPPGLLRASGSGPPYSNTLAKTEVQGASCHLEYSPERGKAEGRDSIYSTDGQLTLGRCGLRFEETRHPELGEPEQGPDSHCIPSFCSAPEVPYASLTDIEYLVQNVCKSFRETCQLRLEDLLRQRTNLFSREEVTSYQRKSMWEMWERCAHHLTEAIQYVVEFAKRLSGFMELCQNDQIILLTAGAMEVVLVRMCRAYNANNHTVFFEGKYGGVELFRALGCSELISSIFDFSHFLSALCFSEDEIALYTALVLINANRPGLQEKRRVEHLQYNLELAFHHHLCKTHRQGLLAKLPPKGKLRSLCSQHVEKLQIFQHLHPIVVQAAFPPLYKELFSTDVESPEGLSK
- Experiment Description: qHTS for inhibitors of ROR gamma transcriptional activity; also: nearly all actives have a fitted effect of over 60% in size
- Test Conditions: Drosophila S2 Gal4-RORgamma UAS-luciferase reporter, 20 h; series mostly up to 53.6 µM
Screen size: about 310,000 compounds; about 17,000 (5.5%) were called active. Roughly 11% stayed inconclusive and do not appear here. Calls follow the shape of the dose curve; as a rule, active = well fitted inhibition curve with a large enough effect; inconclusive = small, poorly fitted or top-dose-only effect, or effect the other way; inactive = no such curve, though single readings can be large or run the other way. This is one part of a sample in which actives are shown more often than they occur.
Result category, one only: yes (1) for active, no (0) for inactive

Any idea what this test logged for CN(c1ccccc1)S(=O)(=O)c1cc(C(=O)OCC(=O)N2CCN(C(=O)c3ccco3)CC2)ccc1Cl ? no (0)

Any idea what this test logged for Cc1[nH]c(C)c(S(=O)(=O)N2CCN(c3cccc(C(F)(F)F)c3)CC2)c1C(=O)N1CCCCC1 ? no (0)

Any idea what this test logged for Cc1ccc(NC(=O)c2cccnc2C(=O)Nc2ccc(C)cc2)cc1 ? no (0)

Any idea what this test logged for Cc1ccc(NC(=O)c2nc[nH]c2C(=O)N[C@@H](CCCCNC(=O)OC(C)(C)C)C(=O)OC(C)(C)C)cc1 ? yes (1)
